- System: P. vivax hypnozoites
- experiment_description: microbe, parasite or virus in culture
- Assay type: cell-based, Plasmodium vivax
- run_parameters: read-out: P. vivax hypnozoite EC50
assay_endpoint: pEC50
# log scale: pEC50 equals minus log10 of the concentration in mol/L

Task item: I'd like to know its pEC50. The compound in question is CC(=O)OC[C@]12CCC(C)=C[C@H]1O[C@@H]1[C@H](O)[C@@H](OC(C)=O)[C@@]2(C)[C@]12CO2
Reply: 7.44

---

- experiment_description: in vitro
- run_parameters: human, HepG2 Tox CC50
assay_endpoint: CC50 (nM)
Give your result in nM as a bare value.

Task item: Any idea what CC50 was measured for COc1ccc(C[C@H](N)C(=O)N[C@H]2[C@@H](O)[C@H](n3cnc4c(N(C)C)ncnc43)O[C@@H]2CO)cc1 [puromycin] ?
Reply: 398

---

- experiment_description: in vitro
- run_parameters: human, HepG2 Tox pCC50
assay_endpoint: CC50
The answer consists of two parts: a number and, after it, its unit.

Task item: # CC50 lookup, item COc1ccc(C[C@H](N)C(=O)N[C@H]2[C@@H](O)[C@H](n3cnc4c(N(C)C)ncnc43)O[C@@H]2CO)cc1
Reply: 398 nM

---

- Test system: HepG2 cells
- run_parameters: read-out: HepG2 Tox CC50
assay_endpoint: CC50 (nM)
# number only, unit nM dropped from output

Task item: What CC50 value was documented for this compound, CC(=O)OC[C@]12CCC(C)=C[C@H]1O[C@@H]1[C@H](O)[C@@H](OC(C)=O)[C@@]2(C)[C@]12CO2 ?
Reply: 27.5

---

- Tested on: P. vivax liver schizonts
- experiment_description: microbe, parasite or virus in culture
- Assay type: cell-based, Plasmodium vivax
- run_parameters: read-out: P. vivax schizont EC50
assay_endpoint: pEC50
# pEC50 is unitless: minus log10 of the molar concentration; print number only

Task item: Hi! What's the reported pEC50 for CC(=O)OC[C@]12CCC(C)=C[C@H]1O[C@@H]1[C@H](O)[C@@H](OC(C)=O)[C@@]2(C)[C@]12CO2 on P. vivax liver schizonts?
Reply: 7.87

---

- Test system: P. falciparum (strain W2) asexual blood stage parasites
- experiment_description: microbe, parasite or virus in culture
- Format: cell-based, Plasmodium falciparum
- run_parameters: read-out: P. falciparum ABS (W2) EC50
assay_endpoint: pEC50
Please note pEC50 is a logarithmic value: minus log10 of concentration in mol/L. Answer with that number alone.

Task item: Look at this molecule and give its reported pEC50. CC(=O)OC[C@]12CCC(C)=C[C@H]1O[C@@H]1[C@H](O)[C@@H](OC(C)=O)[C@@]2(C)[C@]12CO2
Reply: 8.21

---

- experiment_description: in vitro
- run_parameters: human, PHH Tox pCC50
assay_endpoint: CC50 (µM)
All answers are understood in µM, so give the number only.

Task item: What CC50 value was documented for this compound, COc1ccc(C[C@H](N)C(=O)N[C@H]2[C@@H](O)[C@H](n3cnc4c(N(C)C)ncnc43)O[C@@H]2CO)cc1 [puromycin] ?
Reply: 1.74

---

- experiment_description: in vitro
- run_parameters: human, PHH Tox CC50
assay_endpoint: CC50 (nM)
Unit nM implied. Number only.

Task item: Which CC50 is reported for this molecule? COc1ccc(C[C@H](N)C(=O)N[C@H]2[C@@H](O)[C@H](n3cnc4c(N(C)C)ncnc43)O[C@@H]2CO)cc1
Reply: 1740
